Test: Encapsulated lumefantrine pharmacokinetics
Format: in vivo
Conditions: pig, other: via endoscopy; pigs, plasma, 960 mg lumefantrine, n=3, trapezoidal rule; read-out: area under the curve (AUC) of released drug
Measure: AUC
Number first, unit second.

Query: AUC; subject: CCCCN(CCCC)CC(O)c1cc(Cl)cc2c1-c1ccc(Cl)cc1/C2=C/c1ccc(Cl)cc1 (stereo not shown) [free lumefantrine, Lumefantrine]
14900 ng·h/mL

* * *

Assay: Encapsulated lumefantrine pharmacokinetics
Assay type: in vivo
Conditions: pig, other: via endoscopy; pigs, plasma, 960 mg lumefantrine, n=3; read-out: maximum observed drug concentration (Cmax)
Description: All animal studies were performed only after MIT CAC review and approval and under veterinarian supervision. Pigs were dosed with the following treatments via endoscopy: free lumefantrine, lumefantrine encapsulated in alginate hydrogels, and lumefantrine encapsulated in LIFT hydrogels (n=3 each). […] Blood was sampled via an installed ear catheter at the indicated time points, and lumefantrine area under the curve was calculated by the trapezoidal rule. […]
Measure: Cmax (ng/mL)
The answer is to be given in ng/mL; state only the numeric part.

Query: Cmax; subject: CCCCN(CCCC)CC(O)c1cc(Cl)cc2c1-c1ccc(Cl)cc1/C2=C/c1ccc(Cl)cc1 (stereo not shown) [free lumefantrine, Lumefantrine]
901

Attribution: patent US20260130847A1
